test.system: recombinant PcrV protein (rPcrV), strain PAO1, amino acid residues 1-294, C-terminal His6 (Pseudomonas aeruginosa strain PAO1)
assay.summary: SPR ProteOn, periplasmic extract on immobilised rPcrV
readout.label: koff (s⁻¹)

1. Nanobody 2B10 (VHH, also called 02B10) VHH: EVQLVESGGGLVQPGGSLRLSCAASGSIFSINNMGWYRQAPGKQRELVTVVTSNLITTYADSVKGRFTISRDNAKNTVYLQMNSLKPEDTAVYYCNAWARSVGSVPYSQFWGQGTLVTVSS = 0.00018
2. Nanobody 13F07 (VHH) VHH: EVQLVESGGGLVQAGGSLRLSCAASGNTFSTNPMYWYRQAEGKQRELVASISSRGITNYADSVRGRFSISRDNTKDTVYLQMNSLKPEDTAVYYCRLASLSSGTVYWGKGTLVTVSS = 0.00092
